Target: delta receptor (Mus musculus, UniProt P32300)
Construct: endogenous in cells
Sequence (P32300 whole entry): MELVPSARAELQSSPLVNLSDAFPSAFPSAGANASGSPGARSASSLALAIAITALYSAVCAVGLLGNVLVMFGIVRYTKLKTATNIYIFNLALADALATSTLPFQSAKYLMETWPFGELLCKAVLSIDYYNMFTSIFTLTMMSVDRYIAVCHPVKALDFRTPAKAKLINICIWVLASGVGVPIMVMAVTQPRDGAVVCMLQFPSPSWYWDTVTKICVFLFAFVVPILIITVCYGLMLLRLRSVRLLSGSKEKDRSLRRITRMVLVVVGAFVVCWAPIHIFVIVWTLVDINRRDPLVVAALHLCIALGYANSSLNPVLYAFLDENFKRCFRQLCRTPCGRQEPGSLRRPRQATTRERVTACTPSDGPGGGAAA
Assay: cAMP bioassay in NG108-15 cells (inhibition of forskolin-stimulated cAMP)
Where a name gives a salt, the structure may show the parent alone.
metric.name: IC50 (nM)
Just the number please, in nM, no unit attached.

Problem: // IC50 lookup, key: COc1ccc2c3c1O[C@H]1c4[nH]c(C(=O)N(Cc5ccccc5)C(C)C)c(C)c4C[C@H]4[C@@H](C2)N(C)CC[C@]314 [Example 1, hydrochloride]
Result: 15

Source listed as patent US6365594B1.
